IC50 by entry:
System: pancreatic cancer cell BxPC-3
assayOverview: CCK-8 inhibition of proliferation, BxPC-3
Format: cell-based, human
protocolConditions: Homo sapiens, BXPC-3; CCK-8, 72 h incubation
A number alone suffices; assume nM.

Look over these answered cases.
CC(C)OC(=O)[C@H](C)N[P@](=O)(OC[C@H]1S[C@@H](n2ccc(N)nc2=O)[C@@H](F)[C@@H]1O)Oc1ccccc1: 705
C[C@H](NP(=O)(OC[C@H]1S[C@@H](n2ccc(N)nc2=O)[C@@H](F)[C@@H]1O)Oc1ccccc1)C(=O)OCc1ccc(F)cc1 (some centres unmarked): 1800
C[C@H](NP(=O)(OC[C@H]1S[C@@H](n2ccc(N)nc2=O)[C@@H](F)[C@@H]1O)Oc1ccccc1)C(=O)OCc1ccccc1 (some centres unmarked): 1280
CC(C)OC(=O)[C@H](C)NP(=O)(OC[C@H]1S[C@@H](n2ccc(N)nc2=O)[C@@H](F)[C@@H]1O)Oc1cccc2c1OCCO2 (some centres unmarked): 1150
CC(C)OC(=O)[C@H](C)NP(=O)(OC[C@H]1S[C@@H](n2ccc(N)nc2=O)[C@@H](F)[C@@H]1O)Oc1ccc2c(c1)OCC2 (some centres unmarked): 2740
CC(C)OC(=O)[C@H](C)NP(=O)(OC[C@H]1S[C@@H](n2ccc(N)nc2=O)[C@@H](F)[C@@H]1O)Oc1ccc2ccoc2c1 (some centres unmarked): 680
CC(C)OC(=O)[C@H](C)NP(=O)(OC[C@H]1S[C@@H](n2ccc(N)nc2=O)[C@@H](F)[C@@H]1O)Oc1ccc(F)c2c1CCO2 (some centres unmarked): 3800

Now turn to the next molecule.
Ask | Quick one: IC50 of `CC(C)OC(=O)[C@H](C)N[P@](=O)(OC[C@H]1S[C@@H](n2ccc(N)nc2=O)[C@@H](F)[C@@H]1O)Oc1ccc2c(c1)OCO2` ?
Reply | 2820
